Tested on: E. coli DSM 1116
Test: Microdilution assay, MIC
Format: cell-based
Conditions: Escherichia coli, DSM1116, 20 h, read-out: MIC E. coli DSM1116
quantityName: MIC

Here are 5 compounds together with their reported answers.
* COc1c(NC(=O)c2ccc(NC(=O)c3ccc(NC(=O)C(Cc4c[nH]nn4)NC(=O)c4ccc(NC(=O)/C(C)=C/c5ccc(O)cc5)cc4)cc3)c(OC)c2O)ccc(C(=O)O)c1O (stereo not shown) | ≤ 16 µg/mL
* COc1c(NC(=O)c2ccc(NC(=O)c3ccc(N(C)C(=O)[C@H](Cc4c[nH]nn4)NC(=O)c4ccc(NC(=O)/C(C)=C/c5ccc(O)cc5)cc4)cc3)c(OC)c2O)ccc(C(=O)O)c1O | ≥ 8000 µg/mL
* COc1c(NC(=O)c2ccc(NC(=O)c3ccc(NC(=O)[C@H](Cc4ccccn4)NC(=O)c4ccc(NC(=O)/C(C)=C/c5ccc(O)cc5)cc4)cc3)c(OC)c2O)ccc(C(=O)O)c1O | 250 µg/mL
* COc1c(NC(=O)c2ccc(NC(=O)c3ccc(NC(=O)[C@H](Cc4cnn[nH]4)NC(=O)c4ccc(NC(=O)/C(C)=C/c5ccc(O)cc5)cc4)c(O)c3)c(OC)c2O)ccc(C(=O)O)c1O | 125 µg/mL
* COc1c(NC(=O)c2ccc(NC(=O)c3ccc(NC(=O)[C@H](Cc4c[nH]cn4)NC(=O)c4ccc(NC(=O)/C(C)=C/c5ccc(O)cc5)cc4)cc3)c(OC)c2O)ccc(C(=O)O)c1O | 63 µg/mL

Tested on E. coli DSM 1116: "COc1c(NC(=O)c2ccc(NC(=O)c3ccc(NC(=O)[C@H](CC#N)NC(=O)c4ccc(NC(=O)/C(C)=C/c5ccc(O)cc5)cc4)cc3O)c(OC)c2O)ccc(C(=O)O)c1O" . Observed MIC: 31 µg/mL

Tested on E. coli DSM 1116: "COc1c(NC(=O)c2ccc(NC(=O)c3ccc(NC(=O)[C@H](Cc4ccncc4)NC(=O)c4ccc(NC(=O)/C(C)=C/c5ccc(O)cc5)cc4)cc3)c(OC)c2O)ccc(C(=O)O)c1O" . Observed MIC: 500 µg/mL
